Reported values of activation for individual entries
Test Target: Mucolipin-1 (Homo sapiens) (UniProt Q9GZU1)
Sequence (Q9GZU1 whole entry, looked up): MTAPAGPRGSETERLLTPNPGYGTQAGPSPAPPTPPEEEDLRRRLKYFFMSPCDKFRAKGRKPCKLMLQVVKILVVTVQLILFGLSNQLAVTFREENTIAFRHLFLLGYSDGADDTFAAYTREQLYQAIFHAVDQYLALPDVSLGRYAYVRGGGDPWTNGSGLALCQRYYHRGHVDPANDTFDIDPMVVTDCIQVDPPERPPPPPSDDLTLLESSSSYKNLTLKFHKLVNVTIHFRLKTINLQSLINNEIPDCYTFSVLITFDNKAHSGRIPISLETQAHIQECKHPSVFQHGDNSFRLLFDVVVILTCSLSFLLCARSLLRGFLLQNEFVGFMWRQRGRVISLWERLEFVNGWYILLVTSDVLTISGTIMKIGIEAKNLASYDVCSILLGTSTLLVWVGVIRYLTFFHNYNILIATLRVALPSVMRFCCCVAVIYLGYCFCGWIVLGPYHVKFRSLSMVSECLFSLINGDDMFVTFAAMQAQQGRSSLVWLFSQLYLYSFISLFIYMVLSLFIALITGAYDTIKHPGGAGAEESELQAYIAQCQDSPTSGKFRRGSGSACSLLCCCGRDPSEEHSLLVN
Assay Name: qHTS for Agonists of the Human Mucolipin Transient Receptor Potential 1 (TRPML1); note: 0% is about no effect
Condition Set: TRPML1-expressing cells, Ca2+ dye fluorescence, FDSS; hits give high values
Out of some 410,000 compounds screened, about 480 (0.12%) were called active. Only a selection was taken, and actives are over-represented in it overall.

{"Molecule": "CCCCCCCNc1ccc(/C=C/c2ccnc3ccccc23)cc1", "Test Target": "Mucolipin-1 (Homo sapiens) (UniProt Q9GZU1)", "Unit String": "%", "activation": 6.43}
{"Molecule": "Cc1cccc(N2CCN(C(=O)CCn3c(=O)c4cccn4c4cccnc43)CC2C)c1 (stereo unspecified)", "Test Target": "Mucolipin-1 (Homo sapiens) (UniProt Q9GZU1)", "Unit String": "%", "activation": 0.62}
{"Molecule": "CC(C)(C)c1ccc(C(=O)C[n+]2cccc3cc(Cl)ccc32)cc1", "Test Target": "Mucolipin-1 (Homo sapiens) (UniProt Q9GZU1)", "Unit String": "%", "activation": 0.444}
{"Molecule": "CCC(=O)N(Cc1ccccc1)c1ccccn1", "Test Target": "Mucolipin-1 (Homo sapiens) (UniProt Q9GZU1)", "Unit String": "%", "activation": -0.645}
{"Molecule": "O=C1O/C(=C\\c2ccc(O)cc2)C(O)=C1c1ccc(O)cc1", "Test Target": "Mucolipin-1 (Homo sapiens) (UniProt Q9GZU1)", "Unit String": "%", "activation": -0.353}
{"Molecule": "Cc1cccc(-c2nnc(SC(C)C(=O)Nc3ccccc3)n2C)c1 (stereo unspecified)", "Test Target": "Mucolipin-1 (Homo sapiens) (UniProt Q9GZU1)", "Unit String": "%", "activation": -0.995}
{"Molecule": "CCOCCCNC(=O)c1ccc2nc(CCc3ccccc3)oc2c1", "Test Target": "Mucolipin-1 (Homo sapiens) (UniProt Q9GZU1)", "Unit String": "%", "activation": 2.82}
{"Molecule": "CN(C(=O)CN(CCO)CC(=O)N(C)C(C)(C)Cc1ccccc1)C(C)(C)Cc1ccccc1", "Test Target": "Mucolipin-1 (Homo sapiens) (UniProt Q9GZU1)", "Unit String": "%", "activation": 51.2}
{"Molecule": "COc1ccc(Br)cc1C1C2C=CCC(C)C2C(=O)N1Cc1ccccc1 (stereo unspecified)", "Test Target": "Mucolipin-1 (Homo sapiens) (UniProt Q9GZU1)", "Unit String": "%", "activation": 1.3}
{"Molecule": "ClC/C=C/C[n+]1ccccc1Cl", "Test Target": "Mucolipin-1 (Homo sapiens) (UniProt Q9GZU1)", "Unit String": "%", "activation": 0.254}
{"Molecule": "Nc1ccc(/C=C/c2ccnc3ccccc23)c([N+](=O)[O-])c1", "Test Target": "Mucolipin-1 (Homo sapiens) (UniProt Q9GZU1)", "Unit String": "%", "activation": 17.6}

* * *

Test Target: Mucolipin-1 (Homo sapiens)
Assay Name: qHTS for Agonists of the Human Mucolipin Transient Receptor Potential 1 (TRPML1); note: 0% is about no effect
Condition Set: TRPML1-expressing cells, Ca2+ dye fluorescence, FDSS; hits give high values
Screen size: about 410,000 compounds; about 480 (0.12%) were called active. Shown is part of a subset that was picked to be rich in actives.
Measurement Type: activation (%)

{"Entry Smiles": "Cc1ccc(CNC(=O)c2cccc3c2C(=O)c2ccc(N4CCC(C)CC4)cc2S3(=O)=O)cc1", "Test Target": "Mucolipin-1 (Homo sapiens)", "Unit String": "%", "Readout Number": 66.9}
{"Entry Smiles": "CCOc1ccc(NC(=O)c2cnn(-c3ccccc3)c2-n2cccc2)cc1", "Test Target": "Mucolipin-1 (Homo sapiens)", "Unit String": "%", "Readout Number": -0.36}
{"Entry Smiles": "CC(=O)N1CCN(CC(c2ccccc2)c2ccccc2)CC1", "Test Target": "Mucolipin-1 (Homo sapiens)", "Unit String": "%", "Readout Number": -0.726}
{"Entry Smiles": "COc1cc(OC)c(/C=C/c2ccnc3ccccc23)c(OC)c1", "Test Target": "Mucolipin-1 (Homo sapiens)", "Unit String": "%", "Readout Number": -0.602}
{"Entry Smiles": "Cc1nn(CC(=O)O)c(=O)c2cc3cc(F)ccc3n12", "Test Target": "Mucolipin-1 (Homo sapiens)", "Unit String": "%", "Readout Number": -0.613}
{"Entry Smiles": "COc1ccc(C(=O)Nc2nonc2-c2ccc(OC)c(OC)c2)cc1Cl", "Test Target": "Mucolipin-1 (Homo sapiens)", "Unit String": "%", "Readout Number": 2.17}
{"Entry Smiles": "Oc1ccccc1CN1CCN(C(c2ccccc2)c2ccccc2)CC1", "Test Target": "Mucolipin-1 (Homo sapiens)", "Unit String": "%", "Readout Number": 84.3}
{"Entry Smiles": "Cn1nnnc1SCC(=O)N1CCN(C(c2ccccc2)c2ccccc2)CC1", "Test Target": "Mucolipin-1 (Homo sapiens)", "Unit String": "%", "Readout Number": 2}
{"Entry Smiles": "O=C1COc2ccc(-c3csc(-c4ccc(Cl)cc4)n3)cc2N1", "Test Target": "Mucolipin-1 (Homo sapiens)", "Unit String": "%", "Readout Number": -0.602}
{"Entry Smiles": "CC(C)c1ccc(NC(=O)Cn2nnc(C(=O)NCCc3ccccc3)c2N)cc1", "Test Target": "Mucolipin-1 (Homo sapiens)", "Unit String": "%", "Readout Number": 1.91}
{"Entry Smiles": "CC(C)(C(=O)NO)c1ccccc1", "Test Target": "Mucolipin-1 (Homo sapiens)", "Unit String": "%", "Readout Number": -0.108}
